- System Under Test: KPC-2 (Klebsiella pneumoniae, UniProt Q9F663)
- Construct: AmpC, TEM-1, KPC-2 or OXA-2 domain excluding signal peptide was amplified with PCR
- Sequence (Q9F663 25-293, looked up): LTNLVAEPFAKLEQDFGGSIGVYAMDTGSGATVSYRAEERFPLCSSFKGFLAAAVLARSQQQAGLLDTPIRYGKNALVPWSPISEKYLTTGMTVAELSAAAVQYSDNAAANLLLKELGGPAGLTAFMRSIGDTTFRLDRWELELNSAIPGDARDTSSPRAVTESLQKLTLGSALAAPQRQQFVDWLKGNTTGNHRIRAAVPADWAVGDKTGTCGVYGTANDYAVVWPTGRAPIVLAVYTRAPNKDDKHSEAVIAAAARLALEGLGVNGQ
- Experimental Details: β-Lactamase inhibitory activity (nitrocefin hydrolysis), KPC-2
- Details: KPC-2 0.5 nM, 100 μM nitrocefin, pre-incubation 30° C. 10 minutes
Reported IC50 by item:

Compound	System Under Test	Endpoint Label	Observed Result
CC(C)NCCONC(=O)[C@@H]1CC[C@@H]2CN1C(=O)N2OS(=O)(=O)O	KPC-2 (Klebsiella pneumoniae, UniProt Q9F663)	IC50	100 to 1000 nM

The compound listed as O=C(NOC[C@@H]1CCN1)[C@@H]1CC[C@@H]2CN1C(=O)N2OS(=O)(=O)O has a reported IC50 of 100 to 1000 nM

The compound listed as O=C(NNC(=O)[C@@H]1CC[C@@H]2CN1C(=O)N2OS(=O)(=O)O)[C@H]1CCCN1 has a reported IC50 of 1000 to 3000 nM

The compound listed as CN(C)C(=O)CONC(=O)[C@@H]1CC[C@@H]2CN1C(=O)N2OS(=O)(=O)O has a reported IC50 of < 100 nM

The compound listed as NCc1ccc(C(=O)NNC(=O)[C@@H]2CC[C@@H]3CN2C(=O)N3OS(=O)(=O)O)cc1 (racemic) has a reported IC50 of 100 to 1000 nM

The compound listed as O=C(NNC(=O)[C@@H]1CC[C@@H]2CN1C(=O)N2OS(=O)(=O)O)[C@H]1CCCCN1 has a reported IC50 of 1000 to 3000 nM

The compound listed as O=C(NO[C@@H]1CCNC1)[C@@H]1CC[C@@H]2CN1C(=O)N2OS(=O)(=O)O has a reported IC50 of 1000 to 3000 nM

The compound listed as CCC(=O)NNC(=O)[C@@H]1CC[C@@H]2CN1C(=O)N2OS(=O)(=O)O has a reported IC50 of 100 to 1000 nM

###

Reported pIC50 by item:
- System Under Test: AmpC (Pseudomonas aeruginosa, UniProt P24735)
- Construct: AmpC, TEM-1, KPC-2 or OXA-2 domain excluding signal peptide was amplified with PCR
- Sequence (P24735 27-397): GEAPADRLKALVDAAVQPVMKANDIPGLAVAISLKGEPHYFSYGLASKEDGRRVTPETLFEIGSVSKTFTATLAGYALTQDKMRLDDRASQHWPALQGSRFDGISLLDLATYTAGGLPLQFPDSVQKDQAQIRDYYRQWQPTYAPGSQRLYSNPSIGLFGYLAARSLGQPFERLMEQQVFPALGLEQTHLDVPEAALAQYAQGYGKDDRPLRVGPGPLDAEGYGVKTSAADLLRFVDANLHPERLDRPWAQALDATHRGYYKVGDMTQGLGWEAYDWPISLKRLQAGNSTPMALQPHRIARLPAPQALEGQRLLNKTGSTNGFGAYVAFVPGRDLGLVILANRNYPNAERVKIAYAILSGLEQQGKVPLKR
- Experimental Details: biochemical
pIC50: −log10 of the molar value.

Take a look at these entries with their results.
Compound	pIC50
CCNCCONC(=O)[C@@H]1CC[C@@H]2CN1C(=O)N2OS(=O)(=O)O [Example 62]	6.00 to 7.00
O=C(NOCCN1CCNCC1)[C@@H]1CC[C@@H]2CN1C(=O)N2OS(=O)(=O)O [Example 73]	> 7.00
O=C(NNC(=O)[C@@H]1CC[C@@H]2CN1C(=O)N2OS(=O)(=O)O)[C@@H]1CCCN1 [Example 38]	6.00 to 7.00

The compound listed as CS(=O)(=O)NNC(=O)[C@@H]1CC[C@@H]2CN1C(=O)N2OS(=O)(=O)O [Example 54] has a reported pIC50 of > 7.00

The compound listed as NCCONC(=O)[C@@H]1CC[C@@H]2CN1C(=O)N2OS(=O)(=O)O [Example 59] has a reported pIC50 of 6.00 to 7.00

The compound listed as CN(C)C(=O)CONC(=O)[C@@H]1CC[C@@H]2CN1C(=O)N2OS(=O)(=O)O [Example 89] has a reported pIC50 of > 7.00

The compound listed as O=C(NNC(=O)[C@@H]1CC[C@@H]2CN1C(=O)N2OS(=O)(=O)O)c1cocn1 [Example 44] has a reported pIC50 of > 7.00

The compound listed as O=C(NNC(=O)[C@@H]1CC[C@@H]2CN1C(=O)N2OS(=O)(=O)O)c1ccccc1 (racemic) [Example 30] has a reported pIC50 of 6.00 to 7.00

The compound listed as O=C(NOCC(=O)N1CCNCC1)[C@@H]1CC[C@@H]2CN1C(=O)N2OS(=O)(=O)O [Example 90] has a reported pIC50 of > 7.00

The compound listed as CN(C)NC(=O)[C@@H]1CC[C@@H]2CN1C(=O)N2OS(=O)(=O)O (racemic) [Example 20] has a reported pIC50 of 6.00 to 7.00

The compound listed as O=C([C@@H]1CC[C@@H]2CN1C(=O)N2OS(=O)(=O)O)N1CCCO1 [Example 70] has a reported pIC50 of 6.00 to 7.00
